- system tested: CaLsb4
- experimental protocol: SPOT peptide array binding signal intensity (averaged, normalized) (arbitrary units (background-subtracted, floor 0; scale differs between SH3 domains)); higher = stronger binding of the SH3 domain to the peptide
Recorded SPOT peptide array binding signal intensity, one value per entry.
measure: SPOT peptide array binding signal intensity

VPPVPLPFGIPPFPM 27.5
YSRKKLPVVLSKMTL 25.5
IHTRRPSSTSQYLIR 150
PSTMDFPKLPSFQNS 390
TKFRISLGLPVGAIM 280
FIRKRAPTPPAPSRS 198
TPEIPPPLPPKIMVH 1090
VAPPPLPNRQLPNLD 4840
PHNPSPFFPPPDFND 28
HVRRSILALPLGVLL 47
GKLKHIPRRPYEIER 40
ALFRLSFFFPLDPAY 278
ILARAILTIPRVLDK 62.5
KWVRRPKLMTPLTFS 346
RKRRTHLRLPLIRSN 85
KRKRRLPVSEDTNTK 154
QLLNPNRRAPRRPLS 95.5
AERNYAPRLPRRETS 4670
AGKRRLPLVRFKASD 173
RRRDFGAPANKRPRR 67.5
RKQRSIPLSPIVPES 64
RKNRAPPQRPRFNRE 646
RVTRKRPREPKSTND 193
